- measurement_description: Dog pharmacokinetic studies, deep intramuscular administration
- Type: in vivo, Beagle dogs
- experimental_conditions: Beagle, dog, plasma, im, 96 mg/kg, IM 96 mg/kg, Sesame oil + 1% Benzyl Alcohol; read-out: Half-life t1/2 (hour) prodrug (converted)
- Procedure: The purpose of this study is to determine the pharmacokinetics of test compounds in plasma, following deep intramuscular administration to Beagle dogs (n=3, unless otherwise specified). The dose formulation (concentration—400 mg base equivalents/ml in sesame oil+1% benzyl alcohol, unless otherwise specified) was administered via deep intramuscularly (unless otherwise specified). […] The dose volume will be determined by the animals' body weight collected on the morning of dosing day. […]
Kindly supply the reported half-life values for the records listed here.
Quick note: number first, unit second.

INSERT INTO results (compound, assay_value) VALUES
  ('C=C1CC[C@@]2(O)C3Cc4ccc(OC(=O)OCCCCCCCCCCCC)c5c4[C@@]2(CCN3CC2CC2)[C@H]1O5 [Compound 6]', '88 h');

Next compound, please.
# lookup: half-life of C=C1CC[C@@]2(O)C3Cc4ccc(OC(=O)CCCCCCC/C=C/CCCCCCCC)c5c4[C@@]2(CCN3CC2CC2)[C@H]1O5 [Compound 15] 162 h
